Task for the reader: assign each of the following compounds its reported IC50.
# TARGET_OF_ASSAY: recombinant human cathepsin K (Homo sapiens, UniProt P43235)
# Sequence (P43235 115-329): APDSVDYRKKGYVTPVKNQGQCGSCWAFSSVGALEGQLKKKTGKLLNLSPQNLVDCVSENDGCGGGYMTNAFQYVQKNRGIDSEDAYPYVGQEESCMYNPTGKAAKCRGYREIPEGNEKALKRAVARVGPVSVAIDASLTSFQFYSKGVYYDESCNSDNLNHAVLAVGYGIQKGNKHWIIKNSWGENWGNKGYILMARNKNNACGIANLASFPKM
# PROCEDURE_DETAILS: in vitro inhibition of recombinant human cathepsin K
# RUN_PARAMETERS: recombinant enzyme, substrate Z-Phe-Arg-AMCA, pH 7.0, 30 min preincubation, fluorescence readout
Numbers only, in nM.

Please give IC50 for each item listed below.
1. CC(C)(C)CCn1c(CN2CCC3(CCN(S(C)(=O)=O)CC3)C2)cc2cnc(C#N)nc21
2. CC(=O)N1CCC2(CC1)C(=O)N(Cc1cc3cnc(C#N)nc3n1CCC(C)(C)C)c1ccccc12

### Response
1: 8; 2: 16
